- test-name: Partition coefficient, log P of the compound
- condition-info: octanol/water
Output True for records whose logP is lower than 3, False for records at or above 3.

C/C=C/C=C/C(=O)O: True
C/C=C/C=C/C(=O)N(C)C: True
C/C=C/C=C/C(=O)Nc1ccc(Br)cc1: False
C/C=C/C=C/C(=O)OCC: True
C/C=C/C=C/C(=O)NC: True
C/C=C/C=C/C(=O)Nc1ccccc1N: True

Please indicate whether the reported logP of C/C=C/C=C/C(=O)OC(C)CC (stereo not drawn) is strictly below 3.
True

Please indicate whether the reported logP of `C/C=C/C=C/C(=O)Oc1ccccc1` is strictly below 3.
False
